Where do these numbers come from? They come from patent US20180050994A1.

Parameter Inactivation (V1/2): see the listing below.
target: hNav1.1 (Homo sapiens, UniProt P35498); construct: host or cells: Xenopus oocytes (cRNA injection); test: Two-electrode voltage-clamp recording of hNav1.1 gating in Xenopus oocytes; assay type: cell-based; details: hNav1.1, steady-state inactivation, 100 μM drug; DMSO control −49.4 ± 0.3 mV
# unit: mV | format: bare number

Here's what some known entries look like.
{"structure string": "Cc1c(C(N)=O)nnn1Cc1ccccc1", "system tested": "hNav1.1 (Homo sapiens, UniProt P35498)", "Inactivation (V1/2) / mV": "−49.4"}
{"structure string": "NC(=O)c1nnn(Cc2cccc(F)c2)c1N", "system tested": "hNav1.1 (Homo sapiens, UniProt P35498)", "Inactivation (V1/2) / mV": "−50.5"}
{"structure string": "NC(=O)c1nnn(Cc2ccc(F)cc2)c1N", "system tested": "hNav1.1 (Homo sapiens, UniProt P35498)", "Inactivation (V1/2) / mV": "−49.8"}

API: the following record is the query input.
Ask: # get_value(readout='Inactivation (V1/2)', item= OCc1cn(Cc2cccc(F)c2)nn1 )
Reply: −49.2

---

Reported Activation (V1/2) values follow for various compounds
target: hNav1.1 (Homo sapiens, UniProt P35498); construct: host or cells: Xenopus oocytes (cRNA injection); test: Two-electrode voltage-clamp recording of hNav1.1 gating in Xenopus oocytes; type: cell-based; conditions: hNav1.1 + β1 in Xenopus oocytes, 100 μM drug, ≤1% DMSO; DMSO control −38.2 ± 1.9 mV
Return type: number; implicit unit mV.

{"compound": "OCc1cn(Cc2cccc(F)c2)nn1", "system tested": "hNav1.1 (Homo sapiens, UniProt P35498)", "measured parameter": "Activation (V1/2)", "value observed": "−38.4"}
{"compound": "Cc1c(C(N)=O)nnn1Cc1ccccc1", "system tested": "hNav1.1 (Homo sapiens, UniProt P35498)", "measured parameter": "Activation (V1/2)", "value observed": "−27.4"}
{"compound": "NC(=O)c1nnn(Cc2cccc(F)c2)c1N", "system tested": "hNav1.1 (Homo sapiens, UniProt P35498)", "measured parameter": "Activation (V1/2)", "value observed": "−30.8"}
{"compound": "NC(=O)c1nnn(Cc2ccc(F)cc2)c1N", "system tested": "hNav1.1 (Homo sapiens, UniProt P35498)", "measured parameter": "Activation (V1/2)", "value observed": "−32.5"}

Continue with the next compound.
Ask: Any idea what Activation (V1/2) was measured for NC(=O)c1cn(Cc2c(F)cccc2F)nn1 [Rufinamide, reference compound] ?
Reply: −30.6
